Data provenance: ChEMBL document CHEMBL3297682

system: MDA-MB-231; test: Antiproliferative activity against human MDA-MB-231 cells after 24 hrs by MTT assay; type: functional, cell-based; conditions: MDA-MB-231, 24 h
pIC50: −log10 of the molar value.
Measurement Type: pIC50

molecule=CCCc1cn(C/C=C2/C(OCc3ccccc3)=C(OCc3ccccc3)C(=O)N2CCC)nn1 measurement_type=pIC50 value_reported="< 4.00"
molecule=Cc1ccc(-c2cn(C/C=C3\OC(=O)C(OCc4ccccc4)=C3OCc3ccccc3)nn2)cc1 measurement_type=pIC50 value_reported="< 4.00"
molecule="CCCCCCCCN1C(=O)C(OCc2ccccc2)=C(OCc2ccccc2)C1(O)CCn1cc(-c2ccccn2)nn1 (stereo not drawn)" measurement_type=pIC50 value_reported="< 4.00"

---

tested on: HEK293; experiment: Cytotoxicity against human HEK293 cells after 24 hrs by MTT assay; assay type: cell-based; settings: HEK293, 24 h
pIC50: −log10 of the molar value.
Measurement Type: pIC50

molecule=O=C1O/C(=C\Cn2cc(C3=CCCCC3)nn2)C(OCc2ccccc2)=C1OCc1ccccc1 measurement_type=pIC50 limit_operator=< value_reported=4.00
molecule="CC(C)(C)c1ccc(-c2cn(CCC3(O)C(OCc4ccccc4)=C(OCc4ccccc4)C(=O)N3CCc3ccccc3)nn2)cc1 (configuration not stated)" measurement_type=pIC50 limit_operator== value_reported=4.15
molecule=CCCCCCCCN1C(=O)C(OCc2ccccc2)=C(OCc2ccccc2)/C1=C/Cn1cc(-c2ccccn2)nn1 measurement_type=pIC50 limit_operator== value_reported=4.08
molecule=CCCCCCc1cn(C/C=C2\OC(=O)C(OC)=C2OC)nn1 measurement_type=pIC50 limit_operator=< value_reported=4.00
molecule=COC1=C(OC)/C(=C/Cn2cc(Cc3ccccc3)nn2)OC1=O measurement_type=pIC50 limit_operator=< value_reported=4.00
molecule=CCCc1cn(C/C=C2\OC(=O)C(OCc3ccccc3)=C2OCc2ccccc2)nn1 measurement_type=pIC50 limit_operator=< value_reported=4.00
molecule="CC/C(=C(\\c1ccccc1)c1ccc(OCCN(C)C)cc1)c1ccccc1 [TAMOXIFEN]" measurement_type=pIC50 limit_operator== value_reported=4.30
molecule="O=C1NC(O)(CCn2cc(Cc3ccccc3)nn2)C(OCc2ccccc2)=C1OCc1ccccc1 (configuration not stated)" measurement_type=pIC50 limit_operator== value_reported=4.07
molecule="CCCCCC(O)c1cn(C/C=C2\\OC(=O)C(OC)=C2OC)nn1 (configuration not stated)" measurement_type=pIC50 limit_operator== value_reported=4.10
molecule=COC1=C(OC)/C(=C/Cn2cc(-c3ccccn3)nn2)OC1=O measurement_type=pIC50 limit_operator=< value_reported=4.00
molecule=O=C1O/C(=C\Cn2cc(-c3ccccc3)nn2)C(OCc2ccccc2)=C1OCc1ccccc1 measurement_type=pIC50 limit_operator=< value_reported=4.00
molecule="CC(C)(C)c1ccc(-c2cn(CCC3(O)NC(=O)C(OCc4ccccc4)=C3OCc3ccccc3)nn2)cc1 (configuration not stated)" measurement_type=pIC50 limit_operator=< value_reported=4.00
molecule="COC1=C(OC)C(O)(CCn2cc(-c3ccc(C(C)(C)C)cc3)nn2)NC1=O (configuration not stated)" measurement_type=pIC50 limit_operator== value_reported=4.21
molecule="COC1=C(OC)C(O)(CCn2cc(-c3ccccc3)nn2)NC1=O (configuration not stated)" measurement_type=pIC50 limit_operator== value_reported=4.21
molecule=COC1=C(OC)/C(=C/Cn2cc(C3CC3)nn2)OC1=O measurement_type=pIC50 limit_operator=< value_reported=4.00
molecule=O=C1O/C(=C\Cn2cc(CCCCO)nn2)C(OCc2ccccc2)=C1OCc1ccccc1 measurement_type=pIC50 limit_operator=< value_reported=4.00
molecule="CCCc1cn(CCC2(O)C(OCc3ccccc3)=C(OCc3ccccc3)C(=O)N2CCC)nn1 (configuration not stated)" measurement_type=pIC50 limit_operator== value_reported=4.05
